# System: MDA-MB-468 breast
# ASSAY_NOTES: NCI-60 one-dose screen, 48 h (100 = growth as untreated, 0 = no growth, -100 = all killed)
# STUDY_CONDITIONS: 10 µM unless noted
Compounds without any hit were thinned out: in the full panel of roughly 83,000, 20% have a hit.
Quick rule for you: growth at 80% or higher means 1, lower means -1.

Use these answered entries as a reference point.
Clc1nc(Oc2ccccc2)nc(-c2cn(-c3ccccc3)c3ccccc23)n1 : 1
COc1ccc(C/C(C)=C(\c2ccc(O)cc2)c2ccc(OCCN3CCCCC3)cc2)cc1 : -1
CC(=O)Oc1ccc(C2OC(c3ccc4ccccc4c3OC(C)=O)=NN2C(C)=O)c(OC(C)=O)c1 (centres undefined) : -1
COc1cc(OC)cc(C2C3=C(COC3=O)Nc3cc(OC)ccc32)c1 (centres undefined) : -1
O=C(Nc1ccc(Cl)cc1)c1cc2cc(F)ccc2cc1O : -1
CC/C(Cc1ccccc1)=C(\c1ccc(OCCN2CCCCCC2)cc1)c1ccc(OC(=O)NCc2ccccc2)cc1 : -1
C[C@H]1[C@@H]2[C@H]3CC[C@@H]4[C@@]5(C)Cc6c([nH]c7ccccc67)C(C)(C)[C@@H]5CC[C@@]4(C)[C@]3(C)CC[C@]23CO[C@]1(C)[C@@H](C(=O)/C=C/c1ccccn1)C3 : 1
COc1cc(-c2cc3ncccc3c3[nH]c(=O)c4cccnc4c23)cc(OC)c1OC : -1
NC1=Nc2ccccc2N(O)N1 : 1
Cc1cc(N2CCN(CC(=O)Nc3ccc4c(ccn4Cc4ccccc4)c3)CC2)nc(N2CCCCCC2)n1 : -1

Has CNc1ncc2cc(-c3cc(NC(=O)NCCC(C)(C)C)c(F)cc3C)c(C)nc2n1 a recorded growth greater than or equal to 80%?
-1

Check the entry Cc1cc(-c2ccc(Cl)cc2)n(Cc2nnc(SCC(=O)Nc3ccc(S(N)(=O)=O)cc3)n2C2CCCCC2)n1 : does growth equal or exceed 80%?
1

# check: growth of O=C(/C=C/C12c3ccccc3C(c3ccccc31)C1C(=O)NC(=O)C12)c1ccccc1 (centres undefined) is greater than or equal to 80%
-1

# bool: growth of CN1CCN(c2ccc(Nc3ncc(C(N)=O)c(NCCCNC(=O)C4CCC4)n3)cc2)CC1 >= 80%
-1

Record CC(C)NC(=O)OCC#CCOC(=O)NC(C)C ; criterion: growth no lower than 80%. Met?
1

Say whether CC(C)CCSc1nc(Nc2ccccc2)c(C#N)c(-c2ccccc2)n1 shows growth of 80% or more.
-1

Tell me whether growth is at least 80% here: CN1C(=O)/C(=C/c2ccc(C(=O)Nc3ncc(Cc4cc(Cl)ccc4Cl)s3)cc2)SC1=S
-1

For this molecule, is measured growth 80% or higher? Cc1cc2cc3cc(C)c(N)cc3[n+](C)c2cc1N
-1

Is growth for COc1ccc(S(=O)(=O)n2c3ccccc3n3ncc(-c4nnc(C)o4)c23)cc1 at or above 80%?
-1

Record Cn1c2ccc(Br)cc2c2c3c(c4c5cc(F)ccc5oc4c21)C(=O)N(O)C3=O ; criterion: growth no lower than 80%. Met?
1

Hi team, for COc1cc(/C=N/NC(=S)NNC(=S)NC2CCCCC2)cc(OC)c1OC , is the recorded growth at or above 80%?
1

Textbook exercise: given the entry COC1OC(C(O)C(O)CO)C(O)C(O)C1O (centres undefined) , state whether its growth is greater than or equal to 80%.
1

Hi team, for c1ccc(-c2cc3n4c(-c5ccccc5)nn(-c5ccccc5)c4cnc-3n2)cc1 , is the recorded growth at or above 80%?
-1
